Tested on: B-CLL cells
ASSAY: Cytotoxicity on B-CLL cells from CLL patients (MTS assay)
MEASUREMENT CONTEXT: human, 72 hours
No end group written: not given here.
ASSAY METRIC: EC50 (µM)
Answers are plain numbers, in µM.

>>> df
                                  substance  assay_metric  units_symbol  reported_result
0  Ac-RQIKIWFQNRRMKWKKCLRVRLASHLRKLRKRLL-NH2 (N-terminus and C-terminus assumed) [COG112]          EC50            µM             0.22

Turning to the following substance.
Look up and report measured EC50 (B-CLL cells) for the following substance: LLRKRLKRLHSALRVRL [COG056, reference compound]
12.9
